FYI, the data here is from patent US9174966B2.

List of clearance values.
assay: Pharmacokinetics in rats, oral versus intravenous administration; format: in vivo; settings: rat, blood, iv, 5 mg/kg
property_name: clearance (mL/min/kg)

O=C(O)C(O)C(O)C(=O)O.c1ccc(-c2ncc3cc(-n4ccnc4)ccc3n2)cc1 [tartrate form A]    23
O=C(O)/C=C\C(=O)O.c1ccc(-c2ncc3cc(-n4ccnc4)ccc3n2)cc1 [maleate form A]    22
c1ccc(-c2ncc3cc(-n4ccnc4)ccc3n2)cc1 [polymorph A, 6-(1H-imidazol-1-yl)-2-phenylquinazoline]    21
O=C(O)CCC(=O)O.c1ccc(-c2ncc3cc(-n4ccnc4)ccc3n2)cc1 [succinate form A]    18

###

assay: Pharmacokinetics in rats, oral versus intravenous administration; assay type: in vivo; details: IV, 5 mg/kg
property_name: V (L/kg)

c1ccc(-c2ncc3cc(-n4ccnc4)ccc3n2)cc1    1.28
O=C(O)CCC(=O)O.c1ccc(-c2ncc3cc(-n4ccnc4)ccc3n2)cc1 [succinate form A]    1.1
O=C(O)C(O)C(O)C(=O)O.c1ccc(-c2ncc3cc(-n4ccnc4)ccc3n2)cc1 [tartrate form A]    1.4
O=C(O)/C=C\C(=O)O.c1ccc(-c2ncc3cc(-n4ccnc4)ccc3n2)cc1 [maleate form A]    1.3

###

Test: Pharmacokinetics in rats, oral versus intravenous administration
Format: in vivo
Details: rat, blood, OS 10 mg/Kg compared with IV 5 mg/kg, read-out: F (bioavailability)
Description: The samples are analysed by HPLC-MS to determine the content of 6-(1H-imidazol-1-yl)-2-phenylquinazoline, using diphenylhydramine hydrochloride as internal standard. The pharmacokinetic parameters measured are summarized hereinbelow: it is noted that, despite the fact that the polymorph under consideration is of low solubility, the bioavailability (F %) is entirely acceptable. […]
List of bioavailability values.
property_name: bioavailability (%)

O=C(O)C(O)C(O)C(=O)O.c1ccc(-c2ncc3cc(-n4ccnc4)ccc3n2)cc1 [tartrate form A]    81
O=C(O)CCC(=O)O.c1ccc(-c2ncc3cc(-n4ccnc4)ccc3n2)cc1 [succinate form A]    65
O=C(O)/C=C\C(=O)O.c1ccc(-c2ncc3cc(-n4ccnc4)ccc3n2)cc1 [maleate form A]    100

###

List of Tmax values.
test: Pharmacokinetics in rats, oral versus intravenous administration; assay type: in vivo; conditions: rat, blood, po, 10 mg/kg, OS (oral), 10 mg/Kg, read-out: Tmax (converted)
property_name: Tmax (h)

c1ccc(-c2ncc3cc(-n4ccnc4)ccc3n2)cc1    1.67
O=C(O)C(O)C(O)C(=O)O.c1ccc(-c2ncc3cc(-n4ccnc4)ccc3n2)cc1 [tartrate form A]    1.67
O=C(O)CCC(=O)O.c1ccc(-c2ncc3cc(-n4ccnc4)ccc3n2)cc1 [succinate form A]    1
O=C(O)/C=C\C(=O)O.c1ccc(-c2ncc3cc(-n4ccnc4)ccc3n2)cc1 [maleate form A]    1

###

List of dissolution rate values.
assay: Dissolution rate in water at 37° C.; assay type: physicochemical; settings: 2 mg of product in 40 mL of water at 37° C., 500 rpm, absorbance at 260 nm
Counter-ions that a name gives are not always drawn.
property_name: dissolution rate

O=C(O)C(O)C(O)C(=O)O.c1ccc(-c2ncc3cc(-n4ccnc4)ccc3n2)cc1 [tartrate form A]    1.04×10^−3 gr/min
O=C(O)/C=C/C(=O)O.c1ccc(-c2ncc3cc(-n4ccnc4)ccc3n2)cc1 [fumarate form A]    2.67×10^−5 gr/min
O=C(O)CCC(=O)O.c1ccc(-c2ncc3cc(-n4ccnc4)ccc3n2)cc1 [succinate form A]    3.53×10^−5 gr/min
O=C(O)/C=C\C(=O)O.c1ccc(-c2ncc3cc(-n4ccnc4)ccc3n2)cc1 [maleate form A]    1.45×10^−3 gr/min
c1ccc(-c2ncc3cc(-n4ccnc4)ccc3n2)cc1 [dihydrochloride monohydrate form A]    2.17×10^−3 gr/min

###

test: Pharmacokinetics in rats, oral versus intravenous administration; assay type: in vivo; conditions: rat, blood, po, 10 mg/kg, OS (oral), 10 mg/Kg, read-out: T½
property_name: half-life (min)

O=C(O)/C=C\C(=O)O.c1ccc(-c2ncc3cc(-n4ccnc4)ccc3n2)cc1 [maleate form A]    45
O=C(O)CCC(=O)O.c1ccc(-c2ncc3cc(-n4ccnc4)ccc3n2)cc1 [succinate form A]    48.6
c1ccc(-c2ncc3cc(-n4ccnc4)ccc3n2)cc1    45.4
O=C(O)C(O)C(O)C(=O)O.c1ccc(-c2ncc3cc(-n4ccnc4)ccc3n2)cc1 [tartrate form A]    47.2
